- ASSAY INFO: NCI Yeast Anticancer Drug Screen. Data for the cln2 rad14 strain (AID 165);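 also: 0% = growth equal to vehicle treated cultures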
- TEST CONTEXT: S. cerevisiae cln2 rad14 strain, at 50.0 µM, hits give high values
This is part of a sample that, as a whole, favours compounds with a hit. Of some 79,000 tested, about 15% had one in any assay.
Please provide measured growth inhibition for the entries that follow.
Please respond with the number in % and leave the unit unwritten.

For the compound shown here, `CCCCCCOC(=O)c1ccccc1C(=O)OCCCCCC` , give the reported growth inhibition.
-12.5

Record: `NC(N)=NOCC[C@@H](N)C(=O)O`
20.2

Record: `O=C(O)c1cc[c]([Hg][S]c2ncnc3nc[nH]c23)cc1`
98.2

Record: `c1cc[c]([Pb]([S]c2nc3ccccc3[nH]2)([c]2ccccc2)[c]2ccccc2)cc1`
91.8

Record: `CCCCCCCCCCOC(=O)CC(C)=O.CCCCCCCCCCOC(=O)CC(C)=O.[Ni+2]`
-45.1

Record: `O/N=C1\CN2CCC1CC2`
15.4

Record: `COc1ccc([Se][Se]c2ccc(OC)cc2OC)c(OC)c1`
90

Record: `CC(C)c1ccc(C(c2c(O)c3ccccc3oc2=O)c2c(O)c3ccccc3oc2=O)cc1`
99.3

Record: `Cc1ccc2ccccc2c1`
-3.05

Record: `O=[N+]([O-])c1ccc(O)c(CBr)c1`
18.6

Record: CC(c1ccccc1)N1CCN(C(C)c2ccccc2)CC1 (stereo not given)
26.4

Record: Cc1ccc(N2CC=C(c3ccccc3)OP2(=O)N(CCCl)CCCl)cc1 (stereo not given)
80.7

Record: `COc1ccc(/C=C/c2cc(OC)c3c(c2)OCO3)cc1O`
0.9

Record: `[CH3][Sn]([CH3])([n]1cnc2ccccc21)[n]1cnc2ccccc21`
-4.85

Record: CC1CNC2C(=O)NC(=O)NC2N1 (stereo not given)
-5.25

Record: `Cc1cc(C=C2C(=O)NC(=S)NC2=O)c(C)n1-c1ccccc1`
-43.3

Record: [N-]=[N+]=CC(=O)OCC(N)C(=O)O (stereo not given)
14.1

Record: `O=NNc1ncc(Cl)cc1Cl`
-4.7

Record: CC12CCC(O)CC1CCC1C2CCC2(C)C(c3ccc(=O)oc3)CC3OC312 (stereo not given)
48.5

Record: `COc1ccc(C[C@@H]2NC[C@@H](O)[C@@H]2OC(C)=O)cc1`
91.8

###

- ASSAY INFO: NCI Yeast Anticancer Drug Screen. Data for the sgs1 mgt1 strain (AID 161);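 also: 0% = growth of cultures given vehicle only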
- TEST CONTEXT: S. cerevisiae sgs1 mgt1 strain, at 50.0 µM
This is part of a sample that, as a whole, favours compounds with a hit. Of some 79,000 tested, about 15% had one in any assay. Active and inactive are the calls of the source. No stated cut-off is given here; in the data, active means growth inhibition above about 70%; inactive means the rest.
Returns: one label drawn from y (active), n (inactive)

Can you look up the reported call for O=C1NC(=O)C2(CCc3ccc(N(CCCl)CCCl)cc32)N1 (configuration not stated) for me?
n

Record: ClC1CCCCC1[Se](Cl)(Cl)C1CCCCC1Cl (configuration not stated)
y

Record: `C/C=C1/C(=O)O[C@]23C=C[C@@H]4C(C(=O)OC)=CO[C@H](O[C@@H]12)[C@@H]43`
y

Record: `O=C(N/N=C/c1cc(Br)cc(Br)c1[O-])c1ccccc1O.O=C(N/N=C/c1cc(Br)cc(Br)c1[O-])c1ccccc1O.[Mn+2]`
y

Record: COc1cc(C2c3cc4c(c(O)c3C[C@H]3COC(=O)[C@@H]23)OCO4)cc(OC)c1O (some centres not stated)
n

Record: `O=C(Nc1ccc(N(CCCl)CCCl)cc1)Oc1ccc(C(=O)O)cc1`
n

Record: CC(C)(O)C1=CC23CC(C)(C(=O)O)C4CCCCC4(C)C2CC1OO3 (configuration not stated)
n

Record: CC1CC2OC(=O)C(CN3CC3)C2CC2(C)C(O)CC(O)C12 (configuration not stated)
n

Record: `N.N.N.N.[Co+3].[O-][Cl+3]([O-])([O-])[O-].[OH3+].[OH3+]`
n

Record: `CCN(CC)C(=O)N1CC2CCC(C1)N2C`
n

Record: `CCc1cc(C)cc2[n+]1CC=C2`
y

Record: `O=C(CF)NCCCl`
n

###

- ASSAY INFO: NCI Yeast Anticancer Drug Screen. Data for the mec2-1 strain (AID 157)
- TEST CONTEXT: S. cerevisiae mec2-1 strain, at 5.0 µM (retest, dose inferred, filed as 0.5), hits give high values
Compounds without any hit were thinned out: in the full panel of roughly 79,000, 15% have a hit.
Please provide measured growth inhibition for the entries that follow.
Please respond with the number in % and leave the unit unwritten.

For the molecule shown here, COC1OCCC[CH]1[Hg][Cl] (stereo not given) , give the reported growth inhibition.
100

Record: `CC(C)(C)OOC(=O)/C=C\C(=O)OOC(C)(C)C`
-2

Record: O=[As]c1cccc2ccccc12 (stereo not given)
100

Record: `C1=C[N-]c2c3c(ccc2=C1)=CC=C[N-]3.C1=C[N-]c2c3c(ccc2=C1)=CC=C[N-]3.F[P-](F)(F)(F)(F)F.[Cu+2]`
52

Record: `NC(=O)c1ccc(C(=O)Nc2ccc([As](=O)(O)O)cc2)cc1`
6

Record: `O=C1C(Cl)=C(Cl)C(=O)c2ccccc21`
55

Record: `CC(C)[S-].CC(C)[S-].[Pt+2].c1ccc([PH+](c2ccccc2)c2ccccc2)cc1.c1ccc([PH+](c2ccccc2)c2ccccc2)cc1`
5

Record: COc1ccc2c(c1)CCC(N1CCCC(=O)C1)C2 (stereo not given)
8

Record: `CCCNC1=C(C)C(=O)C2=C(C1=O)[C@H](COC(N)=O)[C@]1(OC)[C@@H]3N[C@@H]3CN21`
15

Record: COC1CC(OC2C(C)OC(OC3C(C)OC(OC4CCC5(C)C(=CCC6(O)C5CC(OC(=O)c5ccc(O)cc5)C5(C)C(O)(C(C)=O)CCC65O)C4)CC3OC)CC2OC)OC(C)C1O (stereo not given) (tested in a mixture with another compound)
8

Record: `CC1=NNC(=O)C1(Br)Br`
-3

Record: CCN1C(C)N1P(=S)(OC1CC(C)(C)N(O)C(C)(C)C1)OC1CC(C)(C)N(O)C(C)(C)C1 (stereo not given)
-6

Record: Cc1cc[n+](C2C(=O)c3ccccc3C(=O)C2Nc2cc(Cl)ccc2Cl)cc1 (stereo not given)
11

Record: `C[C](=O)[Hg][O]c1ccc(N=Cc2ccccc2O)cc1`
100

Record: `[Hg][c]1ccccc1`
99

###

Please provide measured growth inhibition for the entries that follow.
- ASSAY INFO: NCI Yeast Anticancer Drug Screen. Data for the mlh1 rad18 strain (AID 175)
- TEST CONTEXT: S. cerevisiae mlh1 rad18 strain growth inhibition; at 50.0 µM; hits give high values
- Method: Growth inhibition of yeast strains with defined genetic alterations is measured as a screen for potential anti-cancer activity. Selected strains with alterations in DNA damage repair or cell cycle control were exposed to compounds and growth inhibition was measured relative to vehicle treated controls. The strain used in this assay is mlh1 rad18
Compounds without any hit were thinned out: in the full panel of roughly 79,000, 15% have a hit.
Please respond with the number in % and leave the unit unwritten.

For the compound shown here, COc1cc(=O)oc(/C=C/C=C/C=C/C(C)=C\C2(C)OC(C)C(C)(O)C2O)c1C (stereo not drawn) , give the reported growth inhibition.
-0.95

Record: `COC(=O)C1=CO[C@@H](C)[C@@H]2CN3CCc4c([nH]c5cc(OC)ccc45)[C@H]3C[C@H]12`
-41

Record: C[N+](C)(C)CC1CCCCC1=O (stereo not drawn)
44.5

Record: CC(C)C1(NC(=O)C2CC3c4cccc5[nH]cc(c45)CC3N(C)C2)OC2(O)C3CCCN3C(=O)C(Cc3ccccc3)N2C1=O (stereo not drawn)
83.4

Record: NC(=O)OCC(O)c1ccccc1 (stereo not drawn)
2.2

Record: CCN1CCC(O)(c2ccccc2)C(C(=O)c2ccccc2)C1 (stereo not drawn)
16.4

Record: `CNC(=O)Oc1cccc2c1C(=O)OC2=O`
7.1

Record: CC(C)CC1N=C(N(C)N=O)OP1(=O)NNc1ncccn1 (stereo not drawn)
13.9

Record: `[Co+2].[Co+2].[O-]CCCN=Cc1ccccc1[O-].[O-]CCCN=Cc1ccccc1[O-]`
58.1

Record: NC(CCOCCP(=O)(O)O)C(=O)O (stereo not drawn)
-40.1

Record: `CC1(C)C2=CC[C@H]3[C@@H]4CC[C@H](O)[C@@]4(C)CC[C@@H]3[C@@]2(C)CC[C@@H]1O`
-3.15

Record: CCNC(Cc1ccccc1)C1CCCO1 (stereo not drawn)
-27.9

Record: `CCOc1ccc(CCNC)c2c1ccc1ccc(OC)c(O)c12`
98

Record: `COc1cc2ccnc(C3(OC(=O)c4ccccc4)CCN(CCc4ccccc4)CC3)c2cc1OC`
-0.95

Record: `ClCc1ccco1`
36.2

Record: COc1cc2c(cc1O)CC1CC(=O)CCN1C2 (stereo not drawn)
-0.75

Record: `CCOC(OCC)c1ccc(N(C)C)cc1.[C-]#[O+].[C-]#[O+].[C-]#[O+].[Cr]`
4.6

Record: CC1(C)N=C(c2ccccc2)C2(c3ccccc3)N1C2(C)C (stereo not drawn)
-18.1

Record: `O=C([O-])CN(CCN(CC(=O)[O-])CC(=O)O)CC(=O)O.[Fe+5].[Na+]`
-8.4

Record: COc1cc(C(CC(C)=O)c2cc3c(cc2OC(C)=O)OCO3)cc(OC)c1OC (stereo not drawn) (tested in a mixture with another compound)
23.8

Record: `CCCC(=O)O.CCCC(=O)O.CCCC(=O)O.CCCC(=O)O.[Rh].[Rh]`
24.1

Record: `[Cl][Pd]([Cl])([Cl])[Cl].[NH-]CC[NH-].[NH-]CC[NH-].[Pd+2]`
54.7

Record: CC12OC1(C)C1C(=O)OCC1C2=O (stereo not drawn)
-0.95

Record: `O=C=Nc1ccccc1Cl`
5.15

Record: `CC1(C)N=C(N)N=C(N)N1c1ccc(CCc2ccc(S(=O)(=O)F)cc2)cc1`
7.65

Record: CC(CC(C#N)(c1ccccc1)c1ccccc1)[N+]1(C)CCCCCCC1 (stereo not drawn)
19

Record: `CC(=O)[O][Hg][c]1c(C)c(C)cc(C)c1C`
76.2

Record: `CC(=O)c1ccccc1O.[Cr]`
21.2

Record: `[CH3][Sn]([CH3])([n]1cnc2ccccc21)[n]1cnc2ccccc21`
-3.45

Record: CC(=O)CC1(OC(=O)C2C(C=C(C)C)C2(C)C)C(=O)Nc2ccccc21 (stereo not drawn)
39.5

Record: `CCC[CH2][Sn]1([CH2]CCC)[O]CCN2CCN(CC[O]1)CC2`
85.7

Record: COc1ccc(CC(N)c2ccccc2)cc1OC (stereo not drawn)
-29.1

Record: `CN1C[C@H]2[C@@H](C1=O)[C@H](c1ccccc1)ON2C`
-1.85

Where these numbers come from: PubChem BioAssay (NCI)
